Target: SARS-CoV-2 full length Spike protein, wild type (SARS-CoV-2, UniProt P0DTC2 14-1208)

binder	bead binding signal (fold over isotype)
antibody 343 (antibody, V domains shown) VH: QVQLVESGGDVVQPGTSLRLSCAASGFTFNNYGFHWVRQAPGKGLEWVALISSDGASTHYADSVKGRFTISRDSSVNTLYLQMNSLSLEDTAVYYCATGHCGTTCYYFDYWGQGTLVSVSS VL: DIQVTQSPSYLSASVGDRVTITCRASQTISTFLQWYQQKVGKAPKLLIYAASTLQSGVPSRFSGSGSGTDFSLTISSLQPEDFATYYCQQSYSAPLSFGGGTKVEIK	1.2
antibody 339 (antibody, V domains shown) V domain 1: QITLKESGPTLVKPTETLTLTCSFSGFSLTRTGEAAGWIRQAPGRALEWVTVIFWDDDKRYSPSLQSRLTVTKDTSKNQVVLTMTNVARFDTATYFCWAMGGPGKEYFGQGTQVAVSS V domain 2: QSVLTQPPSVSGAPGQRVTISCTGTSSSIGPYSDVHWYQHVSGKAPRLLIFGNSNRPSGVPDRFSGSKSGTSASLVIAGLQAEDEADYYCQSYDSSLGEIYVFGTGTTVTVL	874
